system: Rattus norvegicus; test: Acute in vivo activity measured by total plasma cholesterol concentration levels (TC) at 30 mg/kg dose; format: functional
The class of a record is decided solely by its measured Delta TC; consult lo = under -60%, mid = from -60% up to -20%, hi = -20% and over

{"Structure Notation": "CC(C)c1cccc(C(C)C)c1OC(=O)NS(=O)(=O)Oc1ccc(F)cc1F", "Class Name": "hi"}
{"Structure Notation": "CCOC(=O)NS(=O)(=O)Oc1c(C(C)C)cccc1C(C)C", "Class Name": "hi"}
{"Structure Notation": "CC(C)c1cccc(C(C)C)c1OC(=O)NS(=O)(=O)Oc1ccccc1", "Class Name": "mid"}
{"Structure Notation": "CC(C)c1cccc(C(C)C)c1NC(=O)NS(=O)(=O)N(Cc1ccccc1)Cc1ccccc1", "Class Name": "mid"}
{"Structure Notation": "CC(C)c1cccc(C(C)C)c1OC(=O)[N-]S(=O)(=O)Oc1c(C(C)C)cccc1C(C)C.[Na+]", "Class Name": "lo"}
{"Structure Notation": "CCOC(=O)[N-]S(=O)(=O)Oc1c(C(C)C)cccc1C(C)C.[Na+]", "Class Name": "hi"}
{"Structure Notation": "Cc1cc(C)c(C)c(OC(=O)NS(=O)(=O)Oc2c(C(C)C)cccc2C(C)C)c1C", "Class Name": "hi"}
{"Structure Notation": "CC(C)c1ccc(OC(=O)NS(=O)(=O)Oc2c(C(C)C)cccc2C(C)C)c(C(C)C)c1", "Class Name": "hi"}
{"Structure Notation": "CC(C)c1cc([N+](=O)[O-])cc(C(C)C)c1OC(=O)NS(=O)(=O)Oc1c(C(C)C)cccc1C(C)C", "Class Name": "hi"}
{"Structure Notation": "CC(C)c1cc(F)cc(C(C)C)c1OC(=O)NS(=O)(=O)Oc1c(C(C)C)cccc1C(C)C", "Class Name": "lo"}
{"Structure Notation": "CC(C)c1ccccc1OC(=O)NS(=O)(=O)Oc1c(C(C)C)cccc1C(C)C", "Class Name": "mid"}
{"Structure Notation": "Cc1cc(C(C)(C)C)c(OC(=O)NS(=O)(=O)Oc2c(C(C)C)cccc2C(C)C)c(C(C)(C)C)c1", "Class Name": "lo"}
{"Structure Notation": "CC(C)c1cccc(C(C)C)c1OS(=O)(=O)NC(=O)Oc1c(F)cccc1F", "Class Name": "mid"}
{"Structure Notation": "CC(C)c1cccc(C(C)C)c1OS(=O)(=O)NC(=O)OC12CC3CC(CC(C3)C1)C2", "Class Name": "hi"}
{"Structure Notation": "CC(C)c1cc(C(C)C)c(NC(=O)NS(=O)(=O)Oc2c(C(C)C)cccc2C(C)C)c(C(C)C)c1", "Class Name": "lo"}
{"Structure Notation": "CC(C)c1ccc(C(C)C)c(NC(=O)NS(=O)(=O)Oc2c(C(C)C)cccc2C(C)C)c1", "Class Name": "mid"}
{"Structure Notation": "CC(C)c1cccc(C(C)C)c1OS(=O)(=O)NC(=O)Oc1c(C(C)(C)C)cc(C(C)(C)C)cc1C(C)(C)C", "Class Name": "lo"}
{"Structure Notation": "CCCCCCCCCCCCOS(=O)(=O)NC(=O)Oc1c(C(C)C)cccc1C(C)C", "Class Name": "lo"}
{"Structure Notation": "CCCCCCOS(=O)(=O)NC(=O)Oc1c(C(C)C)cccc1C(C)C", "Class Name": "mid"}
{"Structure Notation": "CC(C)c1cccc(C(C)C)c1OS(=O)(=O)NC(=O)OC1CCCCC1", "Class Name": "mid"}
